Field: IC50. System: IRAK4 (Homo sapiens (Human)). Provenance: assorted publications.

COMPOUND: CN(C)[C@H]1CC[C@H](Oc2ncnc3sc4c(c23)[C@@H](CC(N)=O)CC4)CC1
TEST TARGET: IRAK4 (Homo sapiens (Human))
MEAS VALUE: < 5000 nM
//
COMPOUND: Cc1cc(Nc2nc(N[C@H]3CC[C@H](N4CCCCC4)CC3)c3c(ccn3-c3cnn(C)c3)n2)sn1
TEST TARGET: IRAK4 (Homo sapiens (Human))
MEAS VALUE: 100 to 1000 nM

Please state, for each entry, its recorded IC50.
1. N[C@H](c1cccc(-c2ccc3cnn(-c4cccc(C(F)F)n4)c3c2)n1)[C@H]1C[C@@H](O)C1
2. CCC[C@H](N)c1cccc(-c2cc([C@H]3CC[C@@H](C)O3)c3cnn(-c4cccc(CO)n4)c3c2)n1
3. Cn1cc(-c2cccc(-c3ncc(-c4ccn(C)n4)c(NC4CCCCNC4)n3)c2)cn1 (stereo not drawn)
4. CN[C@H]1C[C@H](Nc2nc(Nc3cc(C)ns3)nc3ccsc23)C1
5. Cn1cc(-c2cccc(-c3ncc(-c4cnn(C)c4)c(NCC4(O)COC4)n3)c2)cn1
6. CC1(C)OC(=O)c2ccc(Nc3cc(N[C@H](CO)c4ccccc4)c(-c4nnc(C5(C#N)CC5)o4)cn3)nc21
7. CCC[C@H](N)c1cccc(-c2cc(OC)c3cnn(-c4nccc(C(F)F)n4)c3c2)n1
8. CN(C)[C@H]1CC[C@H](Nc2ccnc3sc4c(c23)CCC4)CC1

OUT:
1: ≤ 100 nM; 2: < 100 nM; 3: 100 to 1000 nM; 4: 100 to 1000 nM; 5: < 100 nM; 6: 250 to 1000 nM; 7: < 100 nM; 8: ≤ 5000 nM

Please state, for each entry, its recorded IC50.
1. CC(=O)N1CCC(N2CC(n3cc(NC(=O)c4cccc(-c5cnn(C(C)C)c5)n4)c(C(F)F)n3)C2)CC1
2. CC(C)(O)[C@H](F)CNC(=O)c1cnc(-c2cnn3cc(C#N)cnc23)cc1NC1CCCOC1 (single isomer, unassigned)
3. Cn1cc(-n2ccc3nc(Nc4ccccc4)nc(O[C@H]4CCOC4)c32)cn1
4. CC(C)Nc1c(C(=O)NCCc2cccnc2)cnc2ccc(-c3cn[nH]c3)cc12
5. Cn1cc(-c2cccc(-c3ncc(-c4cnn(C)c4)c(NCCCS(C)(=O)=O)n3)c2)cn1
6. CC(C)(O)[C@H](F)CNC(=O)c1cnc(Nc2ccc3ncsc3c2)cc1NC1CCCCCC1

OUT:
1. 1.9 nM
2. 6 nM
3. 100 to 1000 nM
4. 4.2 nM
5. < 100 nM
6. 5.3 nM

====

Field: IC50. System: IRAK4 (Homo sapiens (Human)). Provenance: assorted publications.

Please state, for each entry, its recorded IC50.
1. [2H]C1([2H])c2sc3ncnc(O[C@H]4CC[C@H](N5CCOCC5)CC4)c3c2[C@@H](CC(N)=O)C1([2H])[2H]
2. CCC[C@H](N)c1cccc(-c2cc(N3CC(C)OC(C)C3)c3cnn(-c4cccc(CO)n4)c3c2)n1 (some centres unmarked)
3. COc1cc2nn(C3CCN(CCOCCOCCOc4ccc5c(c4)CN(C4CCC(=O)NC4=O)C5=O)CC3)cc2cc1NC(=O)c1cccc(C(F)(F)F)n1 (centres unmarked)
4. Cc1cncc(-n2cc(Nc3nc(N[C@H]4CC[C@H](O)CC4)c4sccc4n3)cn2)c1
5. Cn1cc(-c2cccc(-c3ncc(-c4ccn(C)n4)c(NC[C@H]4CCNC4)n3)c2)cn1

OUT:
1. < 5000 nM
2. < 100 nM
3. < 30 nM
4. 100 to 1000 nM
5. 100 to 1000 nM

Please state, for each entry, its recorded IC50.
1. CC(C)(O)[C@H](F)CNC(=O)c1cnc(-c2ccc3cc(C#N)cnn23)cc1NCCCC#N
2. O=C1CCC(N2C(=O)c3ccc(OCCOCCOCCOCCOCCN4CCN(Cc5ccc6c(c5)nc(NC(=O)c5cccc(C(F)(F)F)c5)n6[C@H]5CC[C@@H](CO)CC5)CC4)cc3C2=O)C(=O)N1 (some centres unmarked)
3. Cn1cc(-c2cccc(-c3ncc(-c4cnn(C)c4)c(NCC4CCCC4N)n3)c2)cn1 (centres unmarked)

OUT:
1. < 1 nM
2. < 30 nM
3. 100 to 1000 nM
